Molecular target: Amine oxidase [flavin-containing] A (Rattus norvegicus, UniProt P21396)
Sequence (P21396 whole entry): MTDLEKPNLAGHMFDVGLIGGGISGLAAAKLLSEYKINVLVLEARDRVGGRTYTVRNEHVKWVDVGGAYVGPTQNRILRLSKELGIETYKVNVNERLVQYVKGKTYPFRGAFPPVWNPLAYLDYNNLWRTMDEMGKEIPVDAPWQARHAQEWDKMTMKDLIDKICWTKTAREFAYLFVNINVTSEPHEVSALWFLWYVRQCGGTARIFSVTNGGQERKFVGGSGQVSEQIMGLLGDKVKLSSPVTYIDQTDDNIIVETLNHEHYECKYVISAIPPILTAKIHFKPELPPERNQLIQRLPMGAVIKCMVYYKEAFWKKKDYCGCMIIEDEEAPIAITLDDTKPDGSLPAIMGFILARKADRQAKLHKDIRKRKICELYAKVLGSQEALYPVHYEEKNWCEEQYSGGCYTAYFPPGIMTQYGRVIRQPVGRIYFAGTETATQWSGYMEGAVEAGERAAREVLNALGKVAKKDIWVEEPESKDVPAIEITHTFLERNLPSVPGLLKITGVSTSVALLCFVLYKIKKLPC
Assay: Inhibition of Monoamine oxidase A (MAO A) in rat brain at 1 uM
Format: tissue-based
Record T whenever inhibition at 1 µM is at 10% or higher; record F when lower.

INSERT INTO assay_data (compound, answer_label) VALUES
  ('[O-][S+]1c2ccccc2Oc2ccccc21', 'T'),
  ('CC(=O)OC(C)c1ccc2c(c1)C(=O)c1ccc(C(N)=O)cc1S2(=O)=O (stereo unspecified)', 'T'),
  ('CNC(=O)c1ccc2c(c1)oc(=O)c1ccccc12', 'T'),
  ('NC(=O)c1cccc2c1S(=O)(=O)c1ccccc1O2', 'F'),
  ('CNC(=O)c1cccc2c1S(=O)(=O)c1ccccc1O2', 'F'),
  ('O=C(O)c1cccc2c1S(=O)(=O)c1ccccc1O2', 'T');
